- Test system: NCI-H522
- assay-method-text: NCI tumour cell line growth inhibition, 48 h
Calls of active or inactive are those of the source. No stated cut-off is given here; in the data, active = GI50 up to about 1.1 µM and inactive = higher.
measured-attribute: GI50

Q: Short answer please: GI50, NCI-H522, entry CCCCOc1c(C(=O)O)cc(Br)cc1C(=O)O
A: > 100 µM (inactive)

New cases:
Q: Short answer please: GI50, NCI-H522, entry COC1CC(C)C(OC)C2=CC(=O)C=C(NC(=O)/C(C)=C/C=C\C(C)C(OC(N)=O)/C(C)=C\C(C)C1OC)C2=O (stereo not given)
A: 0.0908 µM (active)

Q: Short answer please: GI50, NCI-H522, entry CN(C)P(=O)(Oc1occc1C(O)Cc1ccccc1)N(C)C (stereo not given)
A: > 100 µM (inactive)

Q: Short answer please: GI50, NCI-H522, entry Cc1ccc(C2=C(c3ccccc3)C(O)(c3ccccc3)C(c3ccccc3)=C2c2ccc(C)cc2)cc1
A: > 100 µM (inactive)

Q: Short answer please: GI50, NCI-H522, entry Cn1cccc(C(=O)c2ccccc2)c1=O
A: > 100 µM (inactive)

Q: Short answer please: GI50, NCI-H522, entry COC1CC(N)C(O)C(C)O1 (stereo not given)
A: > 100 µM (inactive)

Q: Short answer please: GI50, NCI-H522, entry O=[N+]([O-])/C(C(Cl)=C(Cl)Cl)=C(/Br)SCc1ccccc1
A: 1.71 µM (inactive)

Q: Short answer please: GI50, NCI-H522, entry CCOC(=O)/C(C(=O)Nc1cccc(Cl)c1)=C(/N)N1CCOCC1
A: > 100 µM (inactive)

Q: Short answer please: GI50, NCI-H522, entry COc1ccc(C(N)=O)cc1/N=N/N(C)C
A: > 100 µM (inactive)
